B1: PKD2L1 (parent)
chain: YSGGGYYLDLPGSRQGSAEALRAL

variants of: B1; test: protein stability index of a GFP-peptide fusion (GPS, HEK-293T) (PSI 1-6); higher = more stable; settings: c terminus: a fixed tail appended;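 further: lentivirally expressed fusions sorted by FACS into six bins by GFP to DsRed ratio, PSI derived from sequencing read proportions per bin multiplied by bin number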
# label = True if protein stability index >= 2 else False

Worked cases, answers included:
# Mutant Id, Cat
measured = [
    ("S2L", "False"),
    ("L21I", "False"),
]

Kindly review the next variant as well.
[Q] Confirm if protein stability index reported for the variant Q15A is 2 or above.
[A] True
